Molecular target: Gamma-secretase (Homo sapiens) (UniProt Q96BI3+Q9NZ42+Q8WW43+P49768+Q92542+P49810)
Experiment: Inhibition of gamma-secretase-mediated APP cleavage in human SNC cells by ELISA
Format: cell-based
quantityMeasured: log10 ED50 (log10 of the value in nM)
// stored as log10 of ED50 expressed in nM

Some solved entries appear below for comparison.
CC[C@H]1Cc2n[nH]cc2CN1S(=O)(=O)c1ccc(Cl)cc1 (racemic) :: 1.28
CCOC(=O)C1c2c[nH]nc2CCN1S(=O)(=O)c1ccc(Cl)cc1 (centres undefined) :: 2.14
CN(C)C(=O)OCC1c2c[nH]nc2CCN1S(=O)(=O)c1ccc(Cl)cc1 (racemic) :: 3.73

Hi! Can you tell me log10 ED50 for each of these molecules?
1. CC[C@H]1Cc2n[nH]cc2[C@@H](CC)N1S(=O)(=O)c1ccc(Cl)cc1 (racemic)
2. CC[C@H]1Cc2n[nH]cc2[C@@H](c2ccc(Cl)cc2)N1S(=O)(=O)c1ccc(Cl)cc1 (racemic)
3. O=S(=O)(c1ccc(Cl)cc1)N1CCc2n[nH]cc2C1CO (centres undefined)
4. CC[C@@H]1c2c[nH]nc2C[C@H](c2ccc(Cl)cc2)N1S(=O)(=O)c1ccc(Cl)cc1 (racemic)
5. O=S(=O)(c1ccc(Cl)cc1)N1CCc2n[nH]cc2C1c1nccs1 (racemic)
6. O=S(=O)(c1ccc(Cl)cc1)N1Cc2c[nH]nc2CC1Cc1ccccc1 (racemic)

Found:
0.10
1.22
3.50
2.26
2.14
2.53
